Please respond with reported S/N for every item in the list.
biological target: LRP6 E1E2 protein (human) (UniProt O75581); test: spot phage ELISA
Sequence (O75581 20-630 limits assumed): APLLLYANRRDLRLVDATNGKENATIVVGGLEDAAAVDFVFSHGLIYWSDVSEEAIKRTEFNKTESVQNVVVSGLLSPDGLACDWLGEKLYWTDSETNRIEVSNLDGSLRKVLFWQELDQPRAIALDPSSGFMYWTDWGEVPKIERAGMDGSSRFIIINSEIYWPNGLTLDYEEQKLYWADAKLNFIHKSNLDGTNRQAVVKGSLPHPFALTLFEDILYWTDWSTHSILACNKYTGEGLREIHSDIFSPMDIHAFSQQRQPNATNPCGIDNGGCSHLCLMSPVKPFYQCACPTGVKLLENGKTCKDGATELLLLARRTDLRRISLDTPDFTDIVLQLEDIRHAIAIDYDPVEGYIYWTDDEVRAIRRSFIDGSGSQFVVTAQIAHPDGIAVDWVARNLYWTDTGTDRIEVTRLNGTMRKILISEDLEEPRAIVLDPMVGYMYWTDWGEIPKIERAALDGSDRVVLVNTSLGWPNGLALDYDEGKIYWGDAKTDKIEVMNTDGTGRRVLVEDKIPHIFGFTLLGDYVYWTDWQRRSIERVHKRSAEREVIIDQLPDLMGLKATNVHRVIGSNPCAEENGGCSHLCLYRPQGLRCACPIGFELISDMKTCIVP
Format: numeric value only, no unit, no commentary.

Data request: Item under review: GCSNRVKVRACKQDSDCLAGCVCGPNGFCG (designed binder) [LRP6_CKP19] . Reported S/N?
Data returned: 42

Data request: Requested field: S/N. Item: GCRSVNKICKQDSDCLAGCVCGSSRNCG (designed binder) [LRP6_CKP4]
Data returned: 25.4

Data request: // lookup S/N for GCRSNKLREARGCKQDSDCLAGCVCGSRQDCG (designed binder) [LRP6_CKP12]
Data returned: 6.78

Data request: Tell me the measured S/N of GCVSNRVNKGCKQDSDCLAGCVCGPNGFCG (designed binder) [LRP6_CKP7] , please.
Data returned: 29

Data request: Find the recorded S/N belonging to GCVNRVRGCKQDSDCLAGCVCSGGRDCG (designed binder) [LRP6_CKP2] and report it.
Data returned: 41.6

Data request: // returns reported S/N for input GCRSNRIRCKQDSDCLAGCVCYGHGDCG (designed binder) [LRP6_CKP11]
Data returned: 36.8

Data request: Sample GCGNKIRACKQDSDCLAGCVCRDRVGCG (designed binder) [LRP6_CKP21] — what was its S/N?
Data returned: 33.7

Data request: Which S/N value belongs to GCANRVKRTSCKQDSDCLAGCVCGPNGFCG (designed binder) [LRP6_CKP22] ?
Data returned: 42.9

Data request: # input binder: GCVNSVKRCKQDSDCLAGCVCSRGVNCG (designed binder) [LRP6_CKP13] ; wanted: its S/N
Data returned: 37.8

Data request: # input binder: GCMNHVKARRCKQDSDCLAGCVCGPNGFCG (designed binder) [LRP6_CKP3] ; wanted: its S/N
Data returned: 40.2

Data request: Param item = GCNRIRNSCKQDSDCLAGCVCGRGDYCG (designed binder) [LRP6_CKP15] ; retrieve measured S/N.
Data returned: 26.3

Data request: Could you share which S/N value was measured for GCSNYVKRCKQDSDCLAGCVCSPGGRCG (designed binder) [LRP6_CKP17] ?
Data returned: 35.9

Data request: Data request, read-out S/N, for GCASSNSIRQGWCKQDSDCLAGCVCGPKSNCG (designed binder) [LRP6_CKP10]
Data returned: 37.4

Data request: Would you kindly share the measured S/N for GCGSNKIRPRCKQDSDCLAGCVCGPNDFCG (designed binder) [LRP6_CKP14] ?
Data returned: 43.5

Data request: Entry GCVNKIKGCKQDSDCLAGCVCGVEGRCG (designed binder) [LRP6_CKP5] has what S/N?
Data returned: 35.7

Data request: Field request: S/N | item: GCRNSIKRCKQNSDCLAGCVCSVGHGCG (designed binder) [LRP6_CKP6]
Data returned: 37.4

Data request: // S/N lookup, key: GCRGNIIKCKQDSDCLAGCVCNESRGCG (designed binder) [LRP6_CKP8]
Data returned: 37.6

Data request: What measured S/N goes with GCRTNRVKGGCKQDSDCLAGCVCGPNGFCG (designed binder) [LRP6_CKP1] ?
Data returned: 45.5

Data request: For GCRANRVSGRCKQDSDCLAGCVCGPNGFCG (designed binder) [LRP6_CKP18] , what is its reported S/N?
Data returned: 18.3

Data request: Consider the binder GCENRTKGCKQDSDCLAGCVCGFRGTCG (designed binder) [LRP6_CKP20] and give its measured S/N.
Data returned: 38.7

Data request: S/N lookup needed for GCRSGNTIRKRECKQDSDCLAGCVCGGPGGCG (designed binder) [LRP6_CKP9] , thanks.
Data returned: 37.6
